tgt: T1, human MIC-1 receptor (hGFRAL, GDNF family receptor alpha like), full length (human, UniProt Q6UXV0 19-394)
T1 sequence (looked up): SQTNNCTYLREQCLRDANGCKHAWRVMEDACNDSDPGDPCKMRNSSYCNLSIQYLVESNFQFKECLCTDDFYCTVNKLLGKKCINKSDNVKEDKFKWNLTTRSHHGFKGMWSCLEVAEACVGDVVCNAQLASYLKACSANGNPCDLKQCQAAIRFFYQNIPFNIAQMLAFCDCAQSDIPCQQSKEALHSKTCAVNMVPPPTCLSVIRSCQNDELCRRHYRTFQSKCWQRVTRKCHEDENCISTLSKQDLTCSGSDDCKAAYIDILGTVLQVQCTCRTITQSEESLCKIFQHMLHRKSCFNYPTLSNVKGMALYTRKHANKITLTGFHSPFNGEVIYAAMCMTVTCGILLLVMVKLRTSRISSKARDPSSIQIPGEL
experiment_summary: cell-based or functional assay
binders and their reported pERK EC50 (nM)
property: pERK EC50 (nM)

binder="SPAGSPTSTEEGTSESATPESGPG-MIC-1(SEQ ID NO: 1) (ligand) SPAGSPTSTEEGTSESATPESGPGARNGDHCPLGPGRCCRLHTVRASLEDLGWADWVLSPREVQVTMCIGACPSQFRAANMHAQIKTSLHRLKPDTVPAPCCVPASYNPMVLIQKTDTGVSLQTYDDLLAKDCHCI" property="pERK EC50 (nM)" val=0.4
binder="(SEPATSGSETPG)2-MIC-1-Δ1-3(M57L, M86L) (ligand) SEPATSGSETPGSEPATSGSETPGGDHCPLGPGRCCRLHTVRASLEDLGWADWVLSPREVQVTMCIGACPSQFRAANLHAQIKTSLHRLKPDTVPAPCCVPASYNPLVLIQKTDTGVSLQTYDDLLAKDCHCI" property="pERK EC50 (nM)" val=0.4
binder="(SEPATSGSETPG)2-MIC-1-Δ1-3(M57E) (ligand) SEPATSGSETPGSEPATSGSETPGGDHCPLGPGRCCRLHTVRASLEDLGWADWVLSPREVQVTMCIGACPSQFRAANEHAQIKTSLHRLKPDTVPAPCCVPASYNPMVLIQKTDTGVSLQTYDDLLAKDCHCI" property="pERK EC50 (nM)" val=0.6
binder="MIC-1(R2A,N3E,R53E) (ligand) AAEGDHCPLGPGRCCRLHTVRASLEDLGWADWVLSPREVQVTMCIGACPSQFEAANMHAQIKTSLHRLKPDTVPAPCCVPASYNPMVLIQKTDTGVSLQTYDDLLAKDCHCI" property="pERK EC50 (nM)" val=0.4
binder="AASPAGSPTSTEEGTSESATPESGPG-MIC-1(SEQ ID NO: 1) (ligand) AASPAGSPTSTEEGTSESATPESGPGARNGDHCPLGPGRCCRLHTVRASLEDLGWADWVLSPREVQVTMCIGACPSQFRAANMHAQIKTSLHRLKPDTVPAPCCVPASYNPMVLIQKTDTGVSLQTYDDLLAKDCHCI" property="pERK EC50 (nM)" val=0.4
binder="(SEPATSGSETPG)2-MIC-1-Δ1-3(M86L) (ligand) SEPATSGSETPGSEPATSGSETPGGDHCPLGPGRCCRLHTVRASLEDLGWADWVLSPREVQVTMCIGACPSQFRAANMHAQIKTSLHRLKPDTVPAPCCVPASYNPLVLIQKTDTGVSLQTYDDLLAKDCHCI" property="pERK EC50 (nM)" val=0.4
binder="MIC-1(R2A,N3E,M57E) (ligand) AAEGDHCPLGPGRCCRLHTVRASLEDLGWADWVLSPREVQVTMCIGACPSQFRAANEHAQIKTSLHRLKPDTVPAPCCVPASYNPMVLIQKTDTGVSLQTYDDLLAKDCHCI" property="pERK EC50 (nM)" val=0.3
binder="MIC-1(R2A,N3E,L68E) (ligand) AAEGDHCPLGPGRCCRLHTVRASLEDLGWADWVLSPREVQVTMCIGACPSQFRAANMHAQIKTSLHREKPDTVPAPCCVPASYNPMVLIQKTDTGVSLQTYDDLLAKDCHCI" property="pERK EC50 (nM)" val=0.8
